Tested on: SUMO 2/3 conjugates (sumoylation levels) in HCT-116 cells
assay_text: HCT-116 4 hour cell assay, immunoblot of SUMO 2/3 conjugates
Assay type: cell-based
condition_set: 4 h treatment, Western blot, read-out: Cell HCT-116 Western SUMO 2/3 4 h IC50 (uM) Ave
experimental_readout: log10(IC50) (log10 of the value in µM)
Hi team, quick reminder: these entries are log10 of IC50 (µM).

Let me know recorded log10(IC50) for `C=CC(=O)N1Cc2sc(Cl)cc2[C@H](c2ccccc2-c2cnn(CC)c2CC)C1` , thanks.
1.13

Let me know recorded log10(IC50) for `CCn1cc(-c2ccccc2[C@@H]2CN(C(=O)/C=C/CF)Cc3sc(Cl)cc32)c(C(F)(F)F)n1` , thanks.
-0.41

Let me know recorded log10(IC50) for `C=CC(=O)N1Cc2sc(Cl)cc2[C@H](c2ccccc2-c2cn(C(C)(C)C(N)=O)nc2C(F)(F)F)C1` , thanks.
-0.55

Let me know recorded log10(IC50) for `C=CC(=O)N1Cc2sc(-c3ccco3)cc2[C@H](c2ccccc2-c2cn(CC)nc2C(F)(F)F)C1` , thanks.
-0.47

Let me know recorded log10(IC50) for `C=CC(=O)N1Cc2sc(C(=C)C)cc2[C@H](c2ccccc2-c2cn(CC)nc2C(F)(F)F)C1` , thanks.
-0.48

---

target_or_test_system: SAE1 (Homo sapiens (Human))
Sequence (Q9UBE0 whole entry partner): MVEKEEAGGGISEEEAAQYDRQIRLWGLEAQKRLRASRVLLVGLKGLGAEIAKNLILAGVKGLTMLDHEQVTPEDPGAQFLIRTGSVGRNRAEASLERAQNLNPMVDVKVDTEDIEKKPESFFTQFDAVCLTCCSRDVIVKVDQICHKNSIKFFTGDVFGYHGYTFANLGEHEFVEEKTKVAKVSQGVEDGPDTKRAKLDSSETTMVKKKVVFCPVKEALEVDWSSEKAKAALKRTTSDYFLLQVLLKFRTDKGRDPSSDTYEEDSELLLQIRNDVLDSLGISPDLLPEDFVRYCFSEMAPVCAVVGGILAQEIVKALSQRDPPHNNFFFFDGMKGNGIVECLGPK
Sequence (Q9UBT2 whole entry): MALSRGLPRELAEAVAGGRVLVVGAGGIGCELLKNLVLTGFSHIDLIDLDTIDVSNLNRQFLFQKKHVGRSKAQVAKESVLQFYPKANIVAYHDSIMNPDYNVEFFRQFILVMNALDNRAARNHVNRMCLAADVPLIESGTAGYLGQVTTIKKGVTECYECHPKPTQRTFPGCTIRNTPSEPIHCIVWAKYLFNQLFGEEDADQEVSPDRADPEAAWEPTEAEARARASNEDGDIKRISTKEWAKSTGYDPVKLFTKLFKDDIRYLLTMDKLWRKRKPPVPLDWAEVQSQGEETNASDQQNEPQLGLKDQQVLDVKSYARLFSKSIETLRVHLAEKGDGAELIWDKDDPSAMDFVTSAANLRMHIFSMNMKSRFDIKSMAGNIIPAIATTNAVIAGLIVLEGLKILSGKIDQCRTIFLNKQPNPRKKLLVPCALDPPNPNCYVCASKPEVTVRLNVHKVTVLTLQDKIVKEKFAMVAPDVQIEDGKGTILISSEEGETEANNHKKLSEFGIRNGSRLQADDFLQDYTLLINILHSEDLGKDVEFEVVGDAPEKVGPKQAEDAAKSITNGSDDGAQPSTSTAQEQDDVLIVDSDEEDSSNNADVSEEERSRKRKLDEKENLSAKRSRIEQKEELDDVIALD
assay_text: SAE high throughput biochemical (HTRF) assay
condition_set: 15 min preincubation; 100 µM ATP; read-out: 15 min preincubation HTRF IC50 (uM) Ave
So basically, if IC50 comes in under 0.3 µM it's Criterion met, and if it's 0.3 µM or more it's Criterion not met.

Bench note: check whether C=CC(=O)N1Cc2sc(-c3ccco3)cc2[C@H](c2ccccc2-c2cn(CC)nc2C(F)(F)F)C1 [Compound 324] shows IC50 below 0.3 µM
Criterion met

Bench note: check whether C=CC(=O)N1Cc2sc(Cl)cc2[C@H](c2ccccc2-c2cnn(CC)c2CC)C1 [Compound 360] shows IC50 below 0.3 µM
Criterion not met

Bench note: check whether C=CC(=O)N1Cc2sc(C(=C)C)cc2[C@H](c2ccccc2-c2cn(CC)nc2C(F)(F)F)C1 [Compound 318] shows IC50 below 0.3 µM
Criterion met

Bench note: check whether CCn1cc(-c2ccccc2[C@@H]2CN(C(=O)/C=C/CF)Cc3sc(Cl)cc32)c(C(F)(F)F)n1 [Compound 323] shows IC50 below 0.3 µM
Criterion met

Bench note: check whether C=CC(=O)N1Cc2sc(Cl)cc2[C@H](c2ccccc2-c2cn(C(C)(C)C(N)=O)nc2C(F)(F)F)C1 [Compound 312] shows IC50 below 0.3 µM
Criterion met

Bench note: check whether C=CC(=O)N1Cc2sc(Cl)cc2C(c2ccccc2-c2cn(-c3ccncc3Cl)nc2C(F)(F)F)C1 (stereo not drawn) [Compound 340] shows IC50 below 0.3 µM
Criterion not met

The reported measurements were obtained from patent US20230303584A1.
